System: Triticum aestivum
Assay Text: Stimulation of germination of Triticum aestivum (wheat) at 0.1 mM after 5 days relative to untreated control
Type: functional
The source made the active and inactive calls. The rule behind the calls is not given here.
Observed Property: Activity

Sample answers from the record:
COC(=O)[C@@]1(C)CCC[C@]2(C)C3=CC(=O)OC[C@]34O[C@@H]4C[C@@H]12    inactive
COC(=O)[C@@]1(C)CCC[C@@]2(C)[C@H]1CC=C1COC(=O)C[C@@H]12    <20%
CO[C@H]1OC(=O)C=C2C1=C[C@H]1OC(=O)[C@@]3(C)CCC[C@@]2(C)[C@@H]13    >40%
C[C@]1(C(=O)O)CCC[C@]2(C)C3=CC(=O)OC[C@]34O[C@@H]4C[C@@H]12    inactive
COc1nc(C)nc(NC(=O)NS(=O)(=O)c2ccccc2OCCCl)n1 [LOGRAN]    >40%
COC(=O)[C@@]1(C)CCC[C@]2(C)C3=C(CC[C@@H]12)COC(=O)C3    inactive
COC(=O)[C@@]1(C)CCC[C@@]2(C)[C@H]1CC[C@H]1COC(=O)C[C@@H]12    inactive
CO[C@@H]1OC(=O)C=C2C1=C[C@H]1OC(=O)[C@@]3(C)CCC[C@@]2(C)[C@@H]13    >40%

Then this compound:
Given the compound "COC(=O)[C@@]1(C)CCC[C@]2(C)c3cc(=O)occ3CC[C@@H]12" , write its reported Activity.
<20%

* * *

Test system: Lepidium sativum
Assay Text: Inhibition of root length of Lepidium sativum at 0.1 mM after 5 days relative to untreated control
Assay type: functional
Measurement Context: 120 h
Observed Property: inhibition at 100 µM

Sample answers from the record:
C[C@@]12CCC[C@]3(C)C4=CC(=O)OCC4=C[C@@H](OC1=O)[C@@H]23    > 40%
COc1nc(C)nc(NC(=O)NS(=O)(=O)c2ccccc2OCCCl)n1 [LOGRAN]    > 40%

Given the compound "COC(=O)[C@@]1(C)CCC[C@@]2(C)[C@H]1CC[C@H]1COC(=O)C[C@@H]12" , write its reported inhibition at 100 µM.
< 20%

Given the compound "CO[C@@H]1OC(=O)C=C2C1=C[C@H]1OC(=O)[C@@]3(C)CCC[C@@]2(C)[C@@H]13" , write its reported inhibition at 100 µM.
> 40%

* * *

Quick list: Activity per entry.
Tested on: Lactuca sativa
Assay Text: Stimulation of shoot length of Lactuca sativa cv. Roman (lettuce) at 0.1 mM after 5 days relative to untreated control
Type: functional

Sample answers from the record:
COC(=O)[C@@]1(C)CCC[C@@]2(C)[C@H]1CC[C@H]1COC(=O)C[C@@H]12    20%
COC(=O)[C@@]1(C)CCC[C@]2(C)C3=CC(=O)O[C@H](C(C)C)C3=CC[C@@H]12    <20%
COC(=O)[C@@]1(C)CCC[C@]2(C)C3=CC(=O)OCC3=CC[C@@H]12    <20%

Given the compound COc1nc(C)nc(NC(=O)NS(=O)(=O)c2ccccc2OCCCl)n1 [LOGRAN] , write its reported Activity.
>40%

Given the compound "COC(=O)[C@@]1(C)CCC[C@@]2(C)[C@H]1CC=C1COC(=O)C[C@@H]12" , write its reported Activity.
<20%

Given the compound "CO[C@@H]1OC(=O)C=C2C1=C[C@H]1OC(=O)[C@@]3(C)CCC[C@@]2(C)[C@@H]13" , write its reported Activity.
>40%

Given the compound "C[C@]1(C(=O)O)CCC[C@]2(C)C3=CC(=O)OC[C@]34O[C@@H]4C[C@@H]12" , write its reported Activity.
<20%

Given the compound "COC(=O)[C@@]1(C)CCC[C@]2(C)C3=CC(=O)OC[C@]34O[C@@H]4C[C@@H]12" , write its reported Activity.
<20%

// provenance: ChEMBL document CHEMBL3046208
